In this section, each of the sequences is paired with its reported PBM binding z-score.
# Tested on: PPARa:RXRa (NR concentration 270 nM, RXRa partner concentration 90 nM)
# MEASUREMENT_DESCRIPTION: PBM binding z-score (relative to random genomic background probes); higher = stronger binding; sequences stand for … in GC…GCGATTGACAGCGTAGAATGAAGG
OBSERVATION_TYPE: PBM binding z-score

PRIMARY_SEQUENCE	TARGET_OF_ASSAY	OBSERVATION_TYPE	TEST_RESULT
CCTATTAGTAGACCATAAGGGCAACCGAAGCTCG	PPARa:RXRa (NR concentration 270 nM, RXRa partner concentration 90 nM)	PBM binding z-score	0.752
CGTCAAACTTCAAGGTAACGTAACAGAAAGCAGC	PPARa:RXRa (NR concentration 270 nM, RXRa partner concentration 90 nM)	PBM binding z-score	0.32
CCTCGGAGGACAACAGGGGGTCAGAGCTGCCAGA	PPARa:RXRa (NR concentration 270 nM, RXRa partner concentration 90 nM)	PBM binding z-score	3.22
GATGCTAGGTCAACTGATGGTCAGCTAAAGCTCG	PPARa:RXRa (NR concentration 270 nM, RXRa partner concentration 90 nM)	PBM binding z-score	3.62
ACTAGTTGGTCAGCTGAGGTCCCACACAATTCGG	PPARa:RXRa (NR concentration 270 nM, RXRa partner concentration 90 nM)	PBM binding z-score	-0.1
ACTAGTTGGTCAGCTGAGGGCACACACAATTCGG	PPARa:RXRa (NR concentration 270 nM, RXRa partner concentration 90 nM)	PBM binding z-score	0.606
